target: wild-type Choristoneura fumiferana EcR (D, E and F domains) (Choristoneura fumiferana); format: cell-based; settings: S; WT-CtEcR, 3T3 Cells; relative to GS-E ligand
Strictly below 0.2 in RMFI (relative maximum fold induction): Y. Otherwise: N.

Bench note: check whether CCC[C@H](N(NC(=O)c1ccccc1F)C(=O)c1cc(C)cc(C)c1)C(C)(C)C [Example 34] shows RMFI (relative maximum fold induction) below 0.2 N

CCC[C@@H](C1CCCCC1)N(NC(=O)c1cccc(OC)c1)C(=O)c1cc(C)cc(C)c1 [Example 58] , same question. N

CCC[C@H](N(NC(=O)c1cccc(OC)c1CC)C(=O)c1cc(C)cc(C)c1)C(C)(C)C [Example 31] , same question. N

CCC[C@H](N(NC(=O)c1ccc2ccccc2c1)C(=O)c1cc(C)cc(C)c1)C(C)(C)C [Example S-24] , same question. Y

CCC[C@H](N(NC(=O)c1c(F)cccc1F)C(=O)c1cc(C)cc(C)c1)C(C)(C)C [Example 40] , same question. N

CCC[C@H](N(NC(=O)c1ccc(CC)cc1)C(=O)c1cc(C)cc(C)c1)C(C)(C)C [Example 39] , same question. N

CCC[C@@H](C1CCCCC1)N(NC(=O)c1cccc(OC)c1CC)C(=O)c1cc(C)cc(C)c1 [Example 56] , same question. N

CCC[C@H](N(NC(=O)c1cccc(C)c1)C(=O)c1cc(C)cc(C)c1)C(C)(C)C [Example 37] , same question. N

CCC[C@H](N(NC(=O)c1ccccc1)C(=O)c1cc(C)cc(C)c1)C(C)(C)C [Example 32] , same question. Y

CCC[C@H](N(NC(=O)c1ccccc1Cl)C(=O)c1cc(C)cc(C)c1)C(C)(C)C [Example 35] , same question. N

CCC[C@H](N(NC(=O)c1cccnc1Cl)C(=O)c1cc(C)cc(C)c1)C(C)(C)C [Example 45] , same question. Y

CCC[C@H](N(NC(=O)c1c(Cl)cccc1Cl)C(=O)c1cc(C)cc(C)c1)C(C)(C)C [Example 41] , same question. Y

CCC[C@@H](C1CCCCC1)N(NC(=O)c1ccc(CC)cc1)C(=O)c1cc(C)cc(C)c1 [Example 59] , same question. N

CCC[C@@H](C1CCCCC1)N(NC(=O)c1ccccc1)C(=O)c1cc(C)cc(C)c1 [Example 57] , same question. N

CCC[C@H](N(NC(=O)c1ccccc1Br)C(=O)c1cc(C)cc(C)c1)C(C)(C)C [Example 36] , same question. Y

---

biological target: wild-type Choristoneura fumiferana EcR (D, E and F domains) (Choristoneura fumiferana); format: cell-based; settings: R; WT-CtEcR, 3T3 Cells; relative to GS-E ligand
readout kind: RMFI (relative maximum fold induction)
API doc: respond with a numeric literal and nothing else, no unit.

Field request: RMFI (relative maximum fold induction) | item: CCC[C@@H](N(NC(=O)c1ccc2c(c1CC)OCCO2)C(=O)c1cc(C)cc(C)c1)C(C)(C)C [Example 22] 0.78

C=CC[C@H](C1CCCCC1)N(NC(=O)c1cccc(OC)c1C)C(=O)c1cc(C)c(OC)c(C)c1 [Example 61] , same question. 0.33

CCC[C@@H](N(NC(=O)c1ccccc1Br)C(=O)c1cc(C)cc(C)c1)C(C)(C)C [Example 7] , same question. 0.58

C=CC[C@H](C1CCCCC1)N(NC(=O)c1cccc(OC)c1C)C(=O)c1cc(C)cc(C)c1 [Example 60] , same question. 0.62
